# Tested on: Vero E6 infected with SARS-CoV-2
# RUN DESCRIPTION: morphology score (similarity to uninfected cells); higher = more like uninfected cells
# SETTINGS: 24 h
# if value of morphology score reaches -0.01, tag Fulfilled; if it stays below, tag Not fulfilled

# count of solved cases: 3
{"columns": ["COMPOUND", "CATEGORY LABEL"],
 "data": [
  ["C[C@H]1C[C@H]2[C@@H]3CCC4=CC(=O)C=C[C@]4(C)[C@@]3(F)[C@@H](O)C[C@]2(C)[C@@]1(O)C(=O)CO [betamethasone] (10 µM)", "Not fulfilled"],
  ["O=C1C(CC[S+]([O-])c2ccccc2)C(=O)N(c2ccccc2)N1c1ccccc1 (stereo unspecified) [sulfinpyrazone] (10 µM)", "Fulfilled"],
  ["C[C@@]1(CO)[C@H](O)CC[C@@]2(C)[C@H]1CC[C@H]1C[C@@H]3C[C@@]12CC[C@]3(O)CO [aphidicolin] (0.833333 µM)", "Not fulfilled"]
]}

Exam item: For this compound, is measured morphology score -0.01 or higher? C[C@@H](Oc1ccc2[nH]nc(/C=C/c3cnn(CCO)c3)c2c1)c1c(Cl)cncc1Cl (10 µM)
Marked response: Fulfilled
